# assayNotes: Cytotoxic effects on immune cells obtained from mouse bone marrow
# Format: cell-based
# runParameters: mouse immune cells originating from bone marrow, read-out: LC50
Ends that are not written are not given here.
Quick reference: CC50 at 2 hours of the listed items.
Answer as a quantity: numeral, then unit.

Ask: Sample ALWKTLLKKVGKVAGKAVLNAVTNMANQN-OH [DA2N] — what was its CC50 at 2 hours?
Result: 5 µM

Ask: GET /values?readout=CC50 at 2 hours&item= ALWKTLLKKVGAVAGKAVLNAVTNMANQN [K12A]
Result: 6.5 µM

Ask: Which CC50 at 2 hours reading was recorded for the substance ALWKTLLKKVGKVAGKAVLNAVTNMANQN-NH2 [DA2Na] ?
Result: 3.75 µM
